Data origin: the supplement of paper PMC11061612

system: MLMA (Other Blood Carcinomas); test: combination Emax (second highest fraction inhibited in the dose matrix, 72 h); higher = more inhibition; extreme values may be limits of the assay
Label fulfilled for high-side combination Emax (at or above 0.9) and not fulfilled for low-side combination Emax (below it).

Before answering, review these 2 worked examples.
Query :: // inclusive: combination Emax at least 0.9? input: CN(CCO)CC[C@H](CSc1ccccc1)Nc1ccc(S(=O)(=O)NC(=O)c2ccc(N3CCC([C@@H](O)c4ccccc4-c4ccc(Cl)cc4)CC3)cc2)cc1S(=O)(=O)C(F)(F)F [AZD4320] + CCN(CCO)CCCOc1ccc2c(Nc3cc(CC(=O)Nc4cccc(F)c4)[nH]n3)ncnc2c1 [AZD2811] (first compound max 1 µM, 7x7, partner max 1 µM)
Result :: not fulfilled

Query :: Same thing, different molecule: CN(CCO)CC[C@H](CSc1ccccc1)Nc1ccc(S(=O)(=O)NC(=O)c2ccc(N3CCC([C@@H](O)c4ccccc4-c4ccc(Cl)cc4)CC3)cc2)cc1S(=O)(=O)C(F)(F)F [AZD4320] + Cn1cnc2c(F)c(Nc3ccc(Br)cc3Cl)c(C(=O)NOCCO)cc21 [Selumetinib] (first compound max 1 µM, 7x7, partner max 3 µM)
Result :: not fulfilled

Others:
Query :: Is the recorded value of combination Emax equal to or greater than 0.9 for this molecule? NC1(C(=O)N[C@@H](CCO)c2ccc(Cl)cc2)CCN(c2ncnc3[nH]ccc23)CC1 [Capivasertib] + COc1nnc2ccc(N3CCC(c4ccc(OCCN5CCN(C)C(=O)[C@H]5C)cc4)CC3)nn12 [AZD5153] (first compound max 10 µM, 7x7, partner max 1 µM)
Result :: fulfilled
